- tested-on: Luciferin 4-monooxygenase (Photinus pyralis)
- assay-text: qHTS Assay for Inhibitors of Firefly Luciferase; also: nearly all actives have a fitted effect of over 40% in size
- experimental-parameters: purified firefly luciferase, luminescence, 8 min; series mostly up to 57.1 µM
The whole screen tested about 72,000 compounds, of which about 1,600 (2.2%) were called active. Calls follow the shape of the dose curve; as a rule, active = well fitted inhibition curve with a large enough effect; inconclusive = small, poorly fitted or top-dose-only effect; inactive = flat fitted curve, though single readings scatter. Only a selection was taken, and actives are over-represented in it overall.
Possible outcomes: active, inactive

> print(dat)
                                    compound                                 tested.on  label.class
 1          O=C(NCc1ccco1)c1sc2cccc(F)c2c1Cl  Luciferin 4-monooxygenase (Photinus pyralis)     inactive
 2            CC(=O)c1cccc(NC(=O)c2ccncc2)c1  Luciferin 4-monooxygenase (Photinus pyralis)     inactive
 3  C#CC(C)(C)NC(=O)CSc1nc2c(c(=O)n(C)c(=O)n2C)n1CCCC  Luciferin 4-monooxygenase (Photinus pyralis)     inactive
 4  CCC(=O)N1c2ccc(S(=O)(=O)CCC(=O)N3CCN(c4ccccc4)CC3)cc2CC1C (stereo unspecified)  Luciferin 4-monooxygenase (Photinus pyralis)     inactive
 5         O=c1c2c(nc3n1CCCCC3)sc1c(O)cccc12  Luciferin 4-monooxygenase (Photinus pyralis)       active
 6  C[C@H](CCC(=O)NCC(=O)O)[C@H]1CC[C@H]2[C@H]3[C@@H](C[C@@H](O)[C@]12C)[C@]1(C)CC[C@H](O)C[C@@H]1C[C@@H]3O  Luciferin 4-monooxygenase (Photinus pyralis)     inactive
 7  O=C(CSc1nc2c(cnn2-c2ccc(F)cc2)c(=O)[nH]1)N1CCCCCC1  Luciferin 4-monooxygenase (Photinus pyralis)     inactive
 8      C/C(=C\C(=O)c1cccnc1)Nc1ccc(C)c(C)c1  Luciferin 4-monooxygenase (Photinus pyralis)       active
 9               Cc1ccc(C(=O)N2CCCCCC2)cc1Br  Luciferin 4-monooxygenase (Photinus pyralis)     inactive
10                           CC(=O)/C(C)=N\O  Luciferin 4-monooxygenase (Photinus pyralis)     inactive
11                    O=C(Nc1cnccn1)c1cccnc1  Luciferin 4-monooxygenase (Photinus pyralis)     inactive
12               c1ccc(COc2nsnc2N2CCOCC2)cc1  Luciferin 4-monooxygenase (Photinus pyralis)     inactive
13      CCOC(=O)c1nnn(-c2nonc2OC)c1-c1ccccc1  Luciferin 4-monooxygenase (Photinus pyralis)     inactive
14  CCCC(=O)N1c2ccc(-c3csc(N)n3)cc2CC1C (stereo unspecified)  Luciferin 4-monooxygenase (Photinus pyralis)       active
15   CCc1cccc(C)c1NC(=O)CSc1nnc(-c2ccco2)n1N  Luciferin 4-monooxygenase (Photinus pyralis)     inactive
16         C/C(=C\C(=O)c1ccccc1)Nc1cccc(O)c1  Luciferin 4-monooxygenase (Photinus pyralis)       active
17               CCOc1cccc(C(=O)Nc2cccnc2)c1  Luciferin 4-monooxygenase (Photinus pyralis)     inactive
18    NS(=O)(=O)c1cc(Cl)c(Cl)c(S(N)(=O)=O)c1  Luciferin 4-monooxygenase (Photinus pyralis)     inactive
19               Fc1cc(F)c2nc(N3CCOCC3)sc2c1  Luciferin 4-monooxygenase (Photinus pyralis)     inactive
20          CCC(=O)Nc1cccc(NC(=O)c2cccnc2)c1  Luciferin 4-monooxygenase (Photinus pyralis)     inactive
21  CCCC(=O)N(CCc1ccccc1)Cc1nc2ccccc2c(=O)[nH]1  Luciferin 4-monooxygenase (Photinus pyralis)     inactive
